Biological target: T1, TNFR1 (Homo sapiens, UniProt P19438)
T1 chain: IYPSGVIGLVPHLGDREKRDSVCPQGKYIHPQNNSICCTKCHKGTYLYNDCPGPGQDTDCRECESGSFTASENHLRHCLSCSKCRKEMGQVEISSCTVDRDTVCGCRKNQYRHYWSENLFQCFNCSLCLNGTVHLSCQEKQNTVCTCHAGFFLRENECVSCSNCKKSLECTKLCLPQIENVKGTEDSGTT
Assay: yeast display SC50
Tag: Y if measured apparent Kd (screen) is not below 3 nM, N if it is.

Use the examples below as a reference point.
E22F (designed binder) SMEEEVEKAAKEYEKKKKEAIFKHLEKLKAKDKEAAERFLKELEEAAKEYAKDEAKTMSEEEAKRRAKKYKEKVLLSELSEEEQKEIKEAEEKLVRTILKYVEEAAK : N
L79S (designed binder) SMEEEVEKAAKEYEKKKKEAIEKHLEKLKAKDKEAAERFLKELEEAAKEYAKDEAKTMSEEEAKRRAKKYKEKVLLSESSEEEQKEIKEAEEKLVRTILKYVEEAAK : N
I21K (designed binder) SMEEEVEKAAKEYEKKKKEAKEKHLEKLKAKDKEAAERFLKELEEAAKEYAKDEAKTMSEEEAKRRAKKYKEKVLLSELSEEEQKEIKEAEEKLVRTILKYVEEAAK : N
R65W (designed binder) SMEEEVEKAAKEYEKKKKEAIEKHLEKLKAKDKEAAERFLKELEEAAKEYAKDEAKTMSEEEAKWRAKKYKEKVLLSELSEEEQKEIKEAEEKLVRTILKYVEEAAK : Y
Y13R (designed binder) SMEEEVEKAAKEREKKKKEAIEKHLEKLKAKDKEAAERFLKELEEAAKEYAKDEAKTMSEEEAKRRAKKYKEKVLLSELSEEEQKEIKEAEEKLVRTILKYVEEAAK : Y
R66F (designed binder) SMEEEVEKAAKEYEKKKKEAIEKHLEKLKAKDKEAAERFLKELEEAAKEYAKDEAKTMSEEEAKRFAKKYKEKVLLSELSEEEQKEIKEAEEKLVRTILKYVEEAAK : Y
K88F (designed binder) SMEEEVEKAAKEYEKKKKEAIEKHLEKLKAKDKEAAERFLKELEEAAKEYAKDEAKTMSEEEAKRRAKKYKEKVLLSELSEEEQKEIFEAEEKLVRTILKYVEEAAK : N

*Q* Hi team, for Y50I (designed binder) SMEEEVEKAAKEYEKKKKEAIEKHLEKLKAKDKEAAERFLKELEEAAKEIAKDEAKTMSEEEAKRRAKKYKEKVLLSELSEEEQKEIKEAEEKLVRTILKYVEEAAK , is the recorded apparent Kd (screen) at or above 3 nM?
*A* N
